Measured Dmax, listed per entry.
# target-system: wildtype LRRK2 (Homo sapiens, UniProt Q5S007)
# Construct: expressed in transfected cells; host or cells: HEK293 (ATCC CRL-1573), transient transfection, ubiquitin promoter
# Sequence (Q5S007 whole entry): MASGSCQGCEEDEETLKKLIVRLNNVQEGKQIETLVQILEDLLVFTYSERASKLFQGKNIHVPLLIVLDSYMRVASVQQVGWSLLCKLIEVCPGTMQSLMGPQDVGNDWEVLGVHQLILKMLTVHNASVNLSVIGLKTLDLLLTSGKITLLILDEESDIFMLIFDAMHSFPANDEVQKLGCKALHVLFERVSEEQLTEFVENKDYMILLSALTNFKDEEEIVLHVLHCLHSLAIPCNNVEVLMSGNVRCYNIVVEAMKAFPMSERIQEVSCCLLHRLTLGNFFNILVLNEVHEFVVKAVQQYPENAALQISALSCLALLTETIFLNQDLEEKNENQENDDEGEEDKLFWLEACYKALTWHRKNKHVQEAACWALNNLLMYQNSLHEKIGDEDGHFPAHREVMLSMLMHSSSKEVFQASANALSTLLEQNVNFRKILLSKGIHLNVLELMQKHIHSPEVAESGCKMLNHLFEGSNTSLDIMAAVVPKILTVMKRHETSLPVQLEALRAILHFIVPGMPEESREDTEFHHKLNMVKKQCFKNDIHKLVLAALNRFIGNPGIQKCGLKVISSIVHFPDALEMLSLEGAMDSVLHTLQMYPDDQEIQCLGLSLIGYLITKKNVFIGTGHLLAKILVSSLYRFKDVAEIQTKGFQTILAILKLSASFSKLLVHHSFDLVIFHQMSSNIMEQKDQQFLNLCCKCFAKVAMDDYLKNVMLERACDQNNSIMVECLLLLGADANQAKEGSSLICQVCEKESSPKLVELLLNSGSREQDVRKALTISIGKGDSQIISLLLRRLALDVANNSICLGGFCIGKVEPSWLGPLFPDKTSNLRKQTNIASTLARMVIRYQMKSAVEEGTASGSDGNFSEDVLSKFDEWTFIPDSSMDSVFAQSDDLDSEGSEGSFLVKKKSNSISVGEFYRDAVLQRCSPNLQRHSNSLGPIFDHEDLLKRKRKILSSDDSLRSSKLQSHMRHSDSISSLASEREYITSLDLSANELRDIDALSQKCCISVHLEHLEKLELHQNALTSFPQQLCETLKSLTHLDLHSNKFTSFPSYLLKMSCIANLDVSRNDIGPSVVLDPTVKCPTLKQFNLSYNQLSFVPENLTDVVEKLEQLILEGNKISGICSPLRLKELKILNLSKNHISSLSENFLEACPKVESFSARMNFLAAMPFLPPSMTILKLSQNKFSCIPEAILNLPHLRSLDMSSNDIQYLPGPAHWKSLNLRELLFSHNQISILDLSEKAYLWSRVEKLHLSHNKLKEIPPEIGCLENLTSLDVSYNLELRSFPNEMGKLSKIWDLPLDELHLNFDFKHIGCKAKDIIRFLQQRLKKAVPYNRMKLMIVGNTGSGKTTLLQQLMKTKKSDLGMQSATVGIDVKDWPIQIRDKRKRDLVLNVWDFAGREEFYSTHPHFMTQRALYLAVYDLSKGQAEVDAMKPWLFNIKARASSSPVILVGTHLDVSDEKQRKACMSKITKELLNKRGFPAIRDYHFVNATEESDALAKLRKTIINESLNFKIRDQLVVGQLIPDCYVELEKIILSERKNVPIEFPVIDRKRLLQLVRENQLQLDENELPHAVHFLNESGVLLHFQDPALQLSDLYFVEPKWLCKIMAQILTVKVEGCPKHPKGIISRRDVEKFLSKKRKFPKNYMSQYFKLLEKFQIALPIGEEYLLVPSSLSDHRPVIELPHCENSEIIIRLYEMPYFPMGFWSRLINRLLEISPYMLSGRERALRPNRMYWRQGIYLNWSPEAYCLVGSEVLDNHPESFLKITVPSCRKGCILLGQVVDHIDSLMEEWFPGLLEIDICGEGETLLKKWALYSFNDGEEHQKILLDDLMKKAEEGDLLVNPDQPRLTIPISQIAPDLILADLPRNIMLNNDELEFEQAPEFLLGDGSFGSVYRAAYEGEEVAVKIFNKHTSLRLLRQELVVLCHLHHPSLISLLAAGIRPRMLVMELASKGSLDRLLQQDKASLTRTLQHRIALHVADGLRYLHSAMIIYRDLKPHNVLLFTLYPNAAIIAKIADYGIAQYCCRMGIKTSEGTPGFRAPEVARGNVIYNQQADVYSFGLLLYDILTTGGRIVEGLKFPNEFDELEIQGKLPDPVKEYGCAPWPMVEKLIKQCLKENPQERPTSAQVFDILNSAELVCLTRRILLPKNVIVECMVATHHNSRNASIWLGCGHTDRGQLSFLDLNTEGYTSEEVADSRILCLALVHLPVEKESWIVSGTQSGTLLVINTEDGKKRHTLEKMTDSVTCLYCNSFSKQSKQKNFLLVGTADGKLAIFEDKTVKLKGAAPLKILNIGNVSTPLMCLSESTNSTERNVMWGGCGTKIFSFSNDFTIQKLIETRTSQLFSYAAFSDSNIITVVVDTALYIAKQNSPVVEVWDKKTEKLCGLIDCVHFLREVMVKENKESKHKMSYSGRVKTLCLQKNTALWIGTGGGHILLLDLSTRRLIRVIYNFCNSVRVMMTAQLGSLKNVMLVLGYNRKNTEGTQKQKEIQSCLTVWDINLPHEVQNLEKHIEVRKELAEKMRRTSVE
# assay-summary: LRRK2 degradation assay, wildtype LRRK2-HiBit expressed from plasmid in HEK293 cells
# Format: cell-based
# settings: HEK293 cells transfected with HiBit-tagged wildtype LRRK2, 24 hours compound incubation; read-out: **WT Dmax (%)
endpoint: Dmax

# molecule, target-system, endpoint, observed-value
rows = [
    ("CC(C)Oc1ccc2[nH]nc(-c3cc(N4CCO[C@H](CCN5CCN(CC6CCN(c7ccc8c(c7)C(=O)N(C7CCC(=O)NC7=O)C8=O)CC6)CC5)C4)ncn3)c2c1 (some centres unmarked) [compound 50]", "wildtype LRRK2 (Homo sapiens, UniProt Q5S007)", "Dmax", "≥ 70%"),
    ("CC(C)Oc1ccc2[nH]nc(-c3cc(N4CCN(CC[C@H]5CCN(CC6CCN(c7ccc8c(c7)C(=O)N(C7CCC(=O)NC7=O)C8=O)CC6)C5)CC4)ncn3)c2c1 (some centres unmarked) [compound 42]", "wildtype LRRK2 (Homo sapiens, UniProt Q5S007)", "Dmax", "50 to 70%"),
    ("C[C@H]1CN(c2cc(-c3n[nH]c4ccc(OC5(C)CC5)cc34)ncn2)CCN1CCOCCOCCOCCOc1ccc2c(c1)C(=O)N(C1CCC(=O)NC1=O)C2=O (some centres unmarked) [compound 4]", "wildtype LRRK2 (Homo sapiens, UniProt Q5S007)", "Dmax", "50 to 70%"),
    ("CC(C)Oc1ccc2[nH]nc(-c3ccnc(N4CCN(CCOCCOCCOCCOc5ccc6c(c5)C(=O)N(C5CCC(=O)NC5=O)C6=O)[C@@H](C)C4)c3)c2c1 (some centres unmarked) [compound 11]", "wildtype LRRK2 (Homo sapiens, UniProt Q5S007)", "Dmax", "50 to 70%"),
    ("CC(C)Oc1ccc2[nH]nc(-c3cc(N4CCN(CCN5CCC(CN6CCN(c7ccc8c(c7)C(=O)N(C7CCC(=O)NC7=O)C8=O)CC6)CC5)CC4)ncn3)c2c1 (centres unmarked) [compound 27]", "wildtype LRRK2 (Homo sapiens, UniProt Q5S007)", "Dmax", "≥ 70%"),
]

Origin of values: patent US20250114356A1
